experimental system: LONP1 (NM_004793.4) (Homo sapiens (Human), UniProt P36776)
Sequence (P36776 68-959): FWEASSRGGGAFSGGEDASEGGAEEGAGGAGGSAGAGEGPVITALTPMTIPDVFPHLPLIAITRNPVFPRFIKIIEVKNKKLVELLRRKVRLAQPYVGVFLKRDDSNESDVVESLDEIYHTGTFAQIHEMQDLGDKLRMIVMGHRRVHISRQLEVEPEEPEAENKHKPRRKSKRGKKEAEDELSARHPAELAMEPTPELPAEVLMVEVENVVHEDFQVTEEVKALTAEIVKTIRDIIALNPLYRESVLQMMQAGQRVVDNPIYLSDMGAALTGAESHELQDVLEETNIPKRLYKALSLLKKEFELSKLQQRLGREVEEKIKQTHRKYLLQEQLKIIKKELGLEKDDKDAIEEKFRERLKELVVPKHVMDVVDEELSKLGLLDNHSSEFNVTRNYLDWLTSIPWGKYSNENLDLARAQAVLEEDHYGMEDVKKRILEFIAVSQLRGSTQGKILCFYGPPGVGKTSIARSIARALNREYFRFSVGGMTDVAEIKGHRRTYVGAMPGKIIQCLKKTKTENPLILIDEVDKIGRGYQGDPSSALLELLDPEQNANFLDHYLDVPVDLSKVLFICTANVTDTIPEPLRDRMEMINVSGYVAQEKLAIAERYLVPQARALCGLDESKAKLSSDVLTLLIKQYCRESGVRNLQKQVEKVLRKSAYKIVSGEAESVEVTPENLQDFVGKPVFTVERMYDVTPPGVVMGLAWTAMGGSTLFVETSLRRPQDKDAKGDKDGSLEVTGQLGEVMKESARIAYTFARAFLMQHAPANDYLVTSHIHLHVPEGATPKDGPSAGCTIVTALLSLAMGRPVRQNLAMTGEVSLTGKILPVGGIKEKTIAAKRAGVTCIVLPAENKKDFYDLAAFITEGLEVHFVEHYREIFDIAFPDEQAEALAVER
pIC50: −log10 of the molar value.
Listing: pIC50 of selected molecules

Some entries whose results are on file:
COC[C@H](C(=O)N[C@@H](CCCc1ccccc1)B(O)O)N1C(=O)c2ccccc2C1=O 6.30 to 7.30
COC[C@@H](NC(=O)c1cnccn1)C(=O)N[C@H](CCOc1ccc(Cl)c(F)c1)B(O)O 5.30 to 6.30
COC[C@@H](NC(=O)c1cnccn1)C(=O)N[C@@H](CCCc1cccc(Cl)c1)B(O)O 6.30 to 7.30
COC[C@@H](NC(=O)c1cnccn1)C(=O)N[C@@H](CCCc1ccc(O)cc1)B(O)O 5.30 to 6.30
COC[C@@H](NC(=O)c1cnccn1)C(=O)N[C@@H](CCOc1ccc(Cl)cc1C)B(O)O 6.30 to 7.30

Fill blank: measured pIC50 of the molecule COC[C@@H](NC(=O)c1cnccn1)C(=O)N[C@@H](CCCc1cccc(OC)c1)B(O)O is ____. 6.30 to 7.30

Fill blank: measured pIC50 of the molecule COC[C@@H](NC(=O)c1cnccn1)C(=O)N[C@@H](CC1CC1)B(O)O is ____. 6.30 to 7.30

Fill blank: measured pIC50 of the molecule COC[C@@H](NC(=O)[C@H]1CCCCO1)C(=O)N[C@@H](CCCc1ccccc1)B(O)O is ____. 6.30 to 7.30

Fill blank: measured pIC50 of the molecule O=C(N[C@H](CO)C(=O)N[C@@H](CCCc1ccc(O)cc1)B(O)O)c1cnccn1 is ____. 5.30 to 6.30

Entry source: patent US20250320234A1
